molecular target: biotinylated human IL-17 (binding to IL17R/Fc) (Homo sapiens, UniProt Q16552); construct: 177-IR (IL17R/Fc); test: IL-17 competition ELISA II (captured IL17R/Fc, biotinylated IL-17)
Sequence (Q16552 20-155 limits assumed): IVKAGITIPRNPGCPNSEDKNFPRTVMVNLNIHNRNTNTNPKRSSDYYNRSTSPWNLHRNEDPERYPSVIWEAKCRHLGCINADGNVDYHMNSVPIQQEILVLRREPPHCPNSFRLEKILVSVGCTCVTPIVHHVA
resultType: IC50

| compound | obsValue |
| --- | --- |
| O=C1CC2(CCCC2)CC(=O)N[C@H](Cc2ccc(NC(=O)[C@H](Cc3ccccc3Cl)NC(=O)Cc3ccc(CO)cc3)cc2)C(=O)NCCCCCCCCCN1 [Compound 358] | < 0.1 µM |
| CN1C(=O)CC2(CCCC2)CC(=O)N[C@H](C(=O)O)CCCCNC(=O)[C@@H](C(C)(C)C)NC(=O)[C@H]1Cc1ccc(NC(=O)[C@H](Cc2ccccc2Cl)NC(=O)C2(c3ccc(F)cc3)CC2)cc1 [Compound 514] | 0.1 to 1 µM |
| Cc1ccccc1C[C@H](NC(=O)Cc1ccc(F)cc1)C(=O)Nc1ccc(C[C@H]2NC(=O)CC3(CCCC3)CC(=O)NCCCCCNC(=O)[C@@H](C)NC2=O)cc1 [Compound 476] | < 0.1 µM |
| C[C@H]1NC(=O)[C@@H](Cc2ccc(NC(=O)[C@@H](NC(=O)c3cccnc3)C3CCCCC3)cc2)NC(=O)CC2(CCCC2)CC(=O)N[C@H](C(=O)O)CCCCNC1=O [Compound 370] | < 0.1 µM |
| O=C1CC2(CCCC2)CC(=O)N[C@H](Cc2ccc(NC(=O)[C@@H](NC(=O)C(F)(F)c3ccccc3)C3CCCCC3)cc2)C(=O)NCCOCCOCCN1 [Compound 595] | < 0.1 µM |
